Source of measurements: patent US20200230249A1

Target: T1, mouse GLP-1 receptor endogenously expressed in βTC6 cells (mouse, UniProt O35659 22-463)
T1 sequence (looked up): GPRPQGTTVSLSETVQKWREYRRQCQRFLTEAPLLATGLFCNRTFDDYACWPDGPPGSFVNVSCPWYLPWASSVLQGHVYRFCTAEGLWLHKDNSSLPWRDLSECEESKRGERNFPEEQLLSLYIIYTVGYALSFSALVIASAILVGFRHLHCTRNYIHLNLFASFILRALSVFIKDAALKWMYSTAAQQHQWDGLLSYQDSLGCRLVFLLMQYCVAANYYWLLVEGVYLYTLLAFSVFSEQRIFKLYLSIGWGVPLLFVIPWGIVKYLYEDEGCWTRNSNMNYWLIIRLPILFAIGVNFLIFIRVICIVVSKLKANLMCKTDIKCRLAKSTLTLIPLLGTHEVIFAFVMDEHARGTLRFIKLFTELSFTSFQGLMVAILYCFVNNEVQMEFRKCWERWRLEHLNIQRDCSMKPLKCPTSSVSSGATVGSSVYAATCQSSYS
Assay: cell-based or functional assay
Numbered stars: 1 amine (or outer) side, 2 acyl side, 3 side chain; on linkers, the order of the positions; unused ones are H or OH. Square brackets hold non-standard residues; d marks the D form. Ends that are not written are not given here. A^u = urea/ureido (oligourea) residue with alanine side chain, C[C@@H](CNC(=O)[*:2])N[*:1]; D^uα = urea/ureido residue with aspartic acid side chain; E^u = urea/ureido residue with glutamic acid side chain; Y^u = urea/ureido residue with tyrosine side chain
METRIC NAME: EC50 (nM), cAMP production functional assay

BINDER | MEASURED RESULT
HGEGTFTSDVSSY[Y^u][E^u][A^u][A^u][A^u][A^u]FIAWLVKGRG-NH2 [GG2[Y^uE^uA^uA^uA^uA^u]^14-21] | 3.4 nM
HGEGTFTSDVSSYLEGQ[A^u][A^u][A^u]FIAWLVKGRG-NH2 [GG2[A^UA^UA^U]^18-21] | 4.1 nM
HGEGTFTS[D^uα][A^u][A^u]YLEGQAAKEFIAWLVKGRG-NH2 [GG2[D^UαA^UA^U]^9-12] | 13 nM
